# experimental_target: MytiLec (Mytilus galloprovincialis, UniProt B3EWR1, T39A)
# Construct: full-length from codon-optimised synthetic gene, initial Thr changed to Ala; N-terminal His6 tag cut by thrombin, product begins GSHMATF; E. coli BL21(DE3) RILP; homodimer 34 kDa
# Sequence (B3EWR1 39-187 T39A): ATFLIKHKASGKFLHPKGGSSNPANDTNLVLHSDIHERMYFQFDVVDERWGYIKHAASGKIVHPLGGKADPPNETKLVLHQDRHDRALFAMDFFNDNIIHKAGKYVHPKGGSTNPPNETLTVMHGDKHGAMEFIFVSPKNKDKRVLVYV
# assay_notes: ITC, single-site model; crystal structure […] Å
# Format: binding
# condition: 10 mM HEPES pH 7.4, 100 mM NaCl, 298 K; averaged over three sites per monomer (one type of independent site); crystal shows alpha anomer at all six sites of the dimer

{"compound": "CC(=O)N[C@H]1C(O)O[C@H](CO)[C@H](O)[C@@H]1O (stereo partly shown) [GalNAc]", "Kd [µM]": 130}
